Entries and their measured viability, T/C follow.
System: 292921-168-R-J2-PDC KRAS tumor spheroid viability
test.summary: Anticancer human tumor 292921-168-R-J2-PDC patient-derived pancreatic carcinoma cell line growth inhibition [KRAS2]
measurement.parameters: second compound 0.0316 µM; first compound 0.316 µM; stronger effect = lower value; spheroids with HUVEC and MSC
The reply should contain only the number, in %.

Answered cases to consult:
// returns reported viability, T/C for input CC1COCCN1c1cc(-c2ccnn2C)c2ccnc(-c3ccn[nH]3)c2n1 (stereo not drawn) + C=CC(=O)N1CCN(c2nc(OCC3CCCN3C)nc3c2CCN(c2cccc4cccc(C)c24)C3)CC1CC#N 10

Quick check: viability, T/C of CC1(C)CCC(CN2CCN(c3ccc(C(=O)NS(=O)(=O)c4ccc(NCC5CCOCC5)c([N+](=O)[O-])c4)c(Oc4cnc5[nH]ccc5c4)c3)CC2)=C(c2ccc(Cl)cc2)C1 + C=CC(=O)N1CCN(c2nc(OCC3CCCN3C)nc3c2CCN(c2cccc4cccc(C)c24)C3)CC1CC#N ? 96.1

Below: the item to evaluate.
Looking for the measured viability, T/C of COc1cc(Nc2ncc3c(n2)-c2ccc(Cl)cc2C(c2c(F)cccc2OC)=NC3)ccc1C(=O)O + C=CC(=O)N1CCN(c2nc(OCC3CCCN3C)nc3c2CCN(c2cccc4cccc(C)c24)C3)CC1CC#N , can you help? 28.7

###

Tested on: 292921-168-R-J2-PDC KRAS tumor spheroid viability
test.summary: Anticancer human tumor 292921-168-R-J2-PDC cell line growth inhibition [KRAS2];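 also: drug exposure lasted seven days after spheroids formed for three days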;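 as to viability, T/C: percent of DMSO vehicle control viability which is 100%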
measurement.parameters: second compound 3.16 µM; first compound 10 µM; stronger effect = lower value; spheroids with HUVEC and MSC
Text: Multicellular complex tumor spheroid response to RAS pathway inhibitors in combination with a targeted agents in patient-derived cell lines with oncogenic KRAS variants from multiple cancer types A high-throughput screen of multi-cell type tumor spheroids was designed to identify active combinations of targeted small molecules and KRAS pathway inhibitors. […] Compounds. […] If the clinical Cmax for an agent had not been determined, the highest concentration tested was 10 microM. […]
viability, T/C listing for selected compounds.
Expressed in %, but write only the number.

// solved cases for viability, T/C follow
Give its viability, T/C value. Item: CC(C)NCC(C(=O)N1CCN(c2ncnc3c2C(C)CC3O)CC1)c1ccc(Cl)cc1 (stereo not drawn) + COc1cc2nc(C)nc(NC(C)c3cc(N)cc(C(F)(F)F)c3)c2cc1OC1CCOC1 30.6

So what does the record say about viability, T/C for COc1cc2nccc(Oc3ccc(NC(=O)C4(C(=O)Nc5ccc(F)cc5)CC4)cc3)c2cc1OC + C=CC(=O)N1CCN(c2nc(=O)n(-c3c(C)ccnc3C(C)C)c3nc(-c4c(O)cccc4F)c(F)cc23)C(C)C1 ? 14

Consider the record given below.
Any idea what its viability, T/C is? The compound is COc1cc2nccc(Oc3ccc(NC(=O)C4(C(=O)Nc5ccc(F)cc5)CC4)cc3)c2cc1OC + CNCc1ccccc1-c1csc(C(C)Nc2nc(C)nc3cc(OC)c(OC)cc23)c1 0.1

###

Tested on: 292921-168-R-J2-PDC KRAS tumor spheroid viability
test.summary: Anticancer human tumor 292921-168-R-J2-PDC cell line growth inhibition [KRAS2];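 also: drug exposure lasted seven days after spheroids formed for three days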;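 as to viability, T/C: percent of DMSO vehicle control viability which is 100%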
measurement.parameters: second compound 0.316 µM; first compound 0.316 µM; stronger effect = lower value; spheroids with HUVEC and MSC
Text: Multicellular complex tumor spheroid response to RAS pathway inhibitors in combination with a targeted agents in patient-derived cell lines with oncogenic KRAS variants from multiple cancer types A high-throughput screen of multi-cell type tumor spheroids was designed to identify active combinations of targeted small molecules and KRAS pathway inhibitors. […] Compounds. […] If the clinical Cmax for an agent had not been determined, the highest concentration tested was 10 microM. […]
# label = 1 if viability, T/C < 80% else 0

Quick check: viability, T/C of O=C(c1cc(Cc2n[nH]c(=O)c3ccccc23)ccc1F)N1CCN(C(=O)C2CC2)CC1 + CC1OCC2(CCN(c3cnc(Sc4ccnc(N)c4Cl)c(N)n3)CC2)C1N under 80%? 1

I wonder whether COc1cc2nccc(Oc3ccc(NC(=O)C4(C(=O)Nc5ccc(F)cc5)CC4)cc3)c2cc1OC + C=CC(=O)N1CCN(c2nc(=O)n(-c3c(C)ccnc3C(C)C)c3nc(-c4c(O)cccc4F)c(F)cc23)C(C)C1 has viability, T/C below 80%. Can you tell? 0

Hi there! Is viability, T/C for COC(=O)c1ccc2c(C(=Nc3ccc(N(C)C(=O)CN4CCN(C)CC4)cc3)c3ccccc3)c(O)[nH]c2c1 + CNCc1ccccc1-c1csc(C(C)Nc2nc(C)nc3cc(OC)c(OC)cc23)c1 below 80%, do you know? 1

Proceed to the following item.
Please determine if O=C(c1cc(Cc2n[nH]c(=O)c3ccccc23)ccc1F)N1CCN(C(=O)C2CC2)CC1 + COc1cc2nc(C)nc(NC(C)c3cc(N)cc(C(F)(F)F)c3)c2cc1OC1CCOC1 is below 80% in terms of viability, T/C. 0

###

System: 292921-168-R-J2-PDC KRAS tumor spheroid viability
test.summary: Anticancer human tumor 292921-168-R-J2-PDC cell line growth inhibition [KRAS2]; active = viability on the fitted dose curve at most 10% of control; inactive = the rest;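 also: drug exposure lasted seven days after spheroids formed for three days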
measurement.parameters: second compound 10 µM; first compound 1 µM; spheroids with HUVEC and MSC
Log the outcome using a class from true for active, false for inactive

These recorded examples may help you get a feel for the data.
Write down the call the test reported for this compound. Item: CC1(C)CCC(CN2CCN(c3ccc(C(=O)NS(=O)(=O)c4ccc(NCC5CCOCC5)c([N+](=O)[O-])c4)c(Oc4cnc5[nH]ccc5c4)c3)CC2)=C(c2ccc(Cl)cc2)C1 + COc1cc2nc(C)nc(NC(C)c3cc(N)cc(C(F)(F)F)c3)c2cc1OC1CCOC1 false

Field: outcome | Entry: CC1COCCN1c1cc(-c2ccnn2C)c2ccnc(-c3ccn[nH]3)c2n1 (stereo not given) + COc1cc2nc(C)nc(NC(C)c3cc(N)cc(C(F)(F)F)c3)c2cc1OC1CCOC1 true

Can you look up the reported call for COc1cc2nccc(Oc3ccc(NC(=O)C4(C(=O)Nc5ccc(F)cc5)CC4)cc3)c2cc1OC + C=CC(=O)N1CCN(c2nc(=O)n(-c3c(C)ccnc3C(C)C)c3nc(-c4c(O)cccc4F)c(F)cc23)C(C)C1 for me? false

For CC(C)NCC(C(=O)N1CCN(c2ncnc3c2C(C)CC3O)CC1)c1ccc(Cl)cc1 (stereo not given) + C=CC(=O)N1CCN(c2nc(=O)n(-c3c(C)ccnc3C(C)C)c3nc(-c4c(O)cccc4F)c(F)cc23)C(C)C1 , which call appears in the assay record? false

Kindly review the next compound as well.
Could you please tell me the result logged for COc1cc2nccc(Oc3ccc(NC(=O)C4(C(=O)Nc5ccc(F)cc5)CC4)cc3)c2cc1OC + CC1OCC2(CCN(c3cnc(Sc4ccnc(N)c4Cl)c(N)n3)CC2)C1N in this assay? false

###

System: 292921-168-R-J2-PDC KRAS tumor spheroid viability
test.summary: Anticancer human tumor 292921-168-R-J2-PDC cell line growth inhibition [KRAS2];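 also: drug exposure lasted seven days after spheroids formed for three days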;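 as to viability, T/C: percent of DMSO vehicle control viability which is 100%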
measurement.parameters: second compound 10 µM; first compound 0.0316 µM; stronger effect = lower value; spheroids with HUVEC and MSC
measurement.name: viability, T/C (%)
// units = %; emit number, no label

Before answering, review these 4 worked examples.
Quick one: viability, T/C for CC1(C)CCC(CN2CCN(c3ccc(C(=O)NS(=O)(=O)c4ccc(NCC5CCOCC5)c([N+](=O)[O-])c4)c(Oc4cnc5[nH]ccc5c4)c3)CC2)=C(c2ccc(Cl)cc2)C1 + CC1OCC2(CCN(c3cnc(Sc4ccnc(N)c4Cl)c(N)n3)CC2)C1N ? 33.3

Give the measured viability, T/C of COC(=O)c1ccc2c(C(=Nc3ccc(N(C)C(=O)CN4CCN(C)CC4)cc3)c3ccccc3)c(O)[nH]c2c1 + C=CC(=O)N1CCN(c2nc(=O)n(-c3c(C)ccnc3C(C)C)c3nc(-c4c(O)cccc4F)c(F)cc23)C(C)C1 . 38.1

For the compound CN(C)C/C=C/C(=O)Nc1cc2c(Nc3ccc(F)c(Cl)c3)ncnc2cc1O[C@H]1CCOC1 + CC1OCC2(CCN(c3cnc(Sc4ccnc(N)c4Cl)c(N)n3)CC2)C1N , what viability, T/C is on record? 91.5

Given the compound CC1OCC2(CCN(c3cnc(Sc4ccnc(N)c4Cl)c(N)n3)CC2)C1N (stereo not given) + CNCc1ccccc1-c1csc(C(C)Nc2nc(C)nc3cc(OC)c(OC)cc23)c1 , what is its reported viability, T/C? 0.09

Consider the additional compound presented here.
For the compound shown here, Cn1nccc1Nc1nccc(-c2cc3c(s2)C(C)(C)N(CCN2CCOCC2)C3=O)n1 + COc1cc2nc(C)nc(NC(C)c3cc(N)cc(C(F)(F)F)c3)c2cc1OC1CCOC1 , give the reported viability, T/C. 25.4

###

Catalogue of compounds with associated pIC50
System: 292921-168-R-J2-PDC KRAS tumor spheroid viability
test.summary: Anticancer human tumor 292921-168-R-J2-PDC cell line growth inhibition [KRAS2];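 also: drug exposure lasted seven days after spheroids formed for three days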
measurement.parameters: curve of first compound; second compound 1 µM; spheroids with HUVEC and MSC
Please express pIC50 as -log10 of the molar concentration.

# example entries with known answers
I would be grateful if you could share the reported pIC50 for Cn1nccc1Nc1nccc(-c2cc3c(s2)C(C)(C)N(CCN2CCOCC2)C3=O)n1 + C=CC(=O)N1CCN(c2nc(=O)n(-c3c(C)ccnc3C(C)C)c3nc(-c4c(O)cccc4F)c(F)cc23)C(C)C1 . 6.95

I would be grateful if you could share the reported pIC50 for CC(=O)Nc1cccc(-n2c(=O)n(C3CC3)c(=O)c3c(Nc4ccc(I)cc4F)n(C)c(=O)c(C)c32)c1 + COc1cc2nc(C)nc(NC(C)c3cc(N)cc(C(F)(F)F)c3)c2cc1OC1CCOC1 . 9.92

May I ask what pIC50 has been recorded for CC(=O)Nc1cccc(-n2c(=O)n(C3CC3)c(=O)c3c(Nc4ccc(I)cc4F)n(C)c(=O)c(C)c32)c1 + C=CC(=O)N1CCN(c2nc(=O)n(-c3c(C)ccnc3C(C)C)c3nc(-c4c(O)cccc4F)c(F)cc23)C(C)C1 ? 9.40

Continuing:
// query pIC50 value for entry CCN1CCN(Cc2ccc(Nc3ncc(F)c(-c4cc(F)c5nc(C)n(C(C)C)c5c4)n3)nc2)CC1 + CNCc1ccccc1-c1csc(C(C)Nc2nc(C)nc3cc(OC)c(OC)cc23)c1 8.35

Item O=C(c1cc(Cc2n[nH]c(=O)c3ccccc23)ccc1F)N1CCN(C(=O)C2CC2)CC1 + CC1OCC2(CCN(c3cnc(Sc4ccnc(N)c4Cl)c(N)n3)CC2)C1N has what recorded pIC50? 5.06

Item CN(C)C/C=C/C(=O)Nc1cc2c(Nc3ccc(F)c(Cl)c3)ncnc2cc1O[C@H]1CCOC1 + CNCc1ccccc1-c1csc(C(C)Nc2nc(C)nc3cc(OC)c(OC)cc23)c1 has what recorded pIC50? 7.31

What does the data say about its pIC50? Entry: CCN1CCN(Cc2ccc(Nc3ncc(F)c(-c4cc(F)c5nc(C)n(C(C)C)c5c4)n3)nc2)CC1 + COc1cc2nc(C)nc(NC(C)c3cc(N)cc(C(F)(F)F)c3)c2cc1OC1CCOC1 8.01

Tell me the measured pIC50 of Cn1ncnc1[C@H]1c2n[nH]c(=O)c3cc(F)cc(c23)N[C@@H]1c1ccc(F)cc1 + CNCc1ccccc1-c1csc(C(C)Nc2nc(C)nc3cc(OC)c(OC)cc23)c1 , please. 7.62

What does the record list as pIC50 for COc1cc2nccc(Oc3ccc(NC(=O)C4(C(=O)Nc5ccc(F)cc5)CC4)cc3)c2cc1OC + C=CC(=O)N1CCN(c2nc(=O)n(-c3c(C)ccnc3C(C)C)c3nc(-c4c(O)cccc4F)c(F)cc23)C(C)C1 ? 5.77
